Cited source for all entries: patent US5541190A

target: 5α-reductase (Homo sapiens); construct: host or cells: Hs68 human genital skin fibroblasts; test: Inhibition of 5α-reductase activity (testosterone to 5α-dihydrotestosterone conversion) in Hs68 human genital skin fibroblasts; type: cell-based; details: 0.316 μM test compound, 12 μM testosterone substrate, four hours
Sequence (P18405 whole entry): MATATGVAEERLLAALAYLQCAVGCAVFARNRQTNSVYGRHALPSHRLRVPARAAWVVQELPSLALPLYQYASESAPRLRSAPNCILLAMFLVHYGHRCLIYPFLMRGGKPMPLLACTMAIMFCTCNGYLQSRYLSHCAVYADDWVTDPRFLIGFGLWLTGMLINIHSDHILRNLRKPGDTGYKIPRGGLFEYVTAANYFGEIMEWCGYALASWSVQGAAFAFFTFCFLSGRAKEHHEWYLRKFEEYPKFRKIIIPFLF
Binary classification by inhibition at 0.316 µM, with 60% as an inclusive lower bound for 1 (yes); all other cases are 0 (no).

Query: Quick check: does CN1C(=O)CC[C@H]2c3ccc(Br)cc3C(C)(C)C[C@@H]21 (relative stereo) have inhibition at 0.316 µM greater than or equal to 60%?
Result: 1 (yes)

Query: Quick check: does CN1C(=O)CC[C@H]2c3ccc(Br)cc3C(C)(C)C[C@H]21 (relative stereo) have inhibition at 0.316 µM greater than or equal to 60%?
Result: 0 (no)

Query: Quick check: does C[C@H]1C[C@@H]2c3ccc(Cl)cc3CC[C@H]2N(C)C1=O (relative stereo) [Example 26B] have inhibition at 0.316 µM greater than or equal to 60%?
Result: 1 (yes)

Query: Quick check: does COc1ccc(CN2C(=O)CC[C@@]3(C)c4ccc(Cl)cc4CC[C@H]23)cc1 (relative stereo) have inhibition at 0.316 µM greater than or equal to 60%?
Result: 0 (no)

Query: Quick check: does C[C@@H]1C[C@@H]2c3ccc(Cl)cc3CC[C@H]2N(C)C1=O (relative stereo) [Example 26A] have inhibition at 0.316 µM greater than or equal to 60%?
Result: 1 (yes)

Query: Quick check: does C[C@]12CCC(=O)N[C@@H]1CCc1cc(Cl)ccc12 (relative stereo) have inhibition at 0.316 µM greater than or equal to 60%?
Result: 0 (no)
